meta.source: paper PMC9516332

target: panel of 255 wild-type kinases (Homo sapiens); assay: Kinase panel profiling at 1 µmol/L (MSA or IMAP), percentage inhibition; assay type: biochemical; conditions: kinase PKD1; 1 µmol/L single concentration; read-out: %-inhibition at 1 µmol/L, PKD1
valueKind: inhibition at 1 µM (%)
A number alone suffices; assume %.

Below, 4 molecules whose answers are already recorded.
>>> observed("Cc1nc(NC(=O)N2CCC[C@H]2C(N)=O)sc1-c1ccnc(C(C)(C)C(F)(F)F)c1 [alpelisib]")
-2
>>> observed("CCN1C(=O)N(c2c(F)c(OC)cc(OC)c2F)Cc2cnc3[nH]c(CN4CCOCC4)cc3c21 [pemigatinib]")
10
>>> observed("CN1CCN(c2ccc(C(=O)Nc3n[nH]c4ccc(Cc5cc(F)cc(F)c5)cc34)c(NC3CCOCC3)c2)CC1 [entrectinib]")
1.46
>>> observed("FC(F)(F)c1ccc(CNc2ccc(Cc3c[nH]c4ncc(Cl)cc34)cn2)cn1 [pexidartinib]")
-2.56

Task item: Please give the documented inhibition at 1 µM of CCN1CCN(c2ccc(Nc3cc(N(C)C(=O)Nc4c(Cl)c(OC)cc(OC)c4Cl)ncn3)cc2)CC1 [infigratinib]
Reply: 11

----------
target: panel of 255 wild-type kinases (Homo sapiens, UniProt P07948); assay: Kinase panel profiling at 1 µmol/L (MSA or IMAP), percentage inhibition; type: biochemical; settings: kinase LYNa; 1 µmol/L single concentration; read-out: %-inhibition at 1 µmol/L, LYNa
Sequence (P07948 whole entry): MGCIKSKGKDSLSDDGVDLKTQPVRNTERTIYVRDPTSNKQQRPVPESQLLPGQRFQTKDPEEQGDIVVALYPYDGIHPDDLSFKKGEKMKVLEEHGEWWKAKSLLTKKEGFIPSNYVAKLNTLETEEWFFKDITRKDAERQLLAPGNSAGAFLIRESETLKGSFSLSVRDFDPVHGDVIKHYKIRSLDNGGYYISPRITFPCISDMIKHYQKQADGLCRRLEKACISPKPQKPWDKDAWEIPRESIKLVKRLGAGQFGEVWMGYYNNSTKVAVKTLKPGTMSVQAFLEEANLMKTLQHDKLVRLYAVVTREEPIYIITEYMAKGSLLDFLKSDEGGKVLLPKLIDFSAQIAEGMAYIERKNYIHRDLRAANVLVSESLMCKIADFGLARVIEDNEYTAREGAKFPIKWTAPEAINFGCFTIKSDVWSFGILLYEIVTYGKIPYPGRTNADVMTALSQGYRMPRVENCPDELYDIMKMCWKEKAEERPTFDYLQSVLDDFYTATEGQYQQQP
valueKind: inhibition at 1 µM (%)
Answer in %, number only, no unit symbol.

Some solved cases for reference:
>>> observed("CCN1CCN(c2ccc(Nc3cc(N(C)C(=O)Nc4c(Cl)c(OC)cc(OC)c4Cl)ncn3)cc2)CC1")
84
>>> observed("CCN1C(=O)N(c2c(F)c(OC)cc(OC)c2F)Cc2cnc3[nH]c(CN4CCOCC4)cc3c21")
66
>>> observed("O=C(Nc1cnn2ccc(N3CCC[C@@H]3c3cc(F)ccc3F)nc12)N1CC[C@H](O)C1")
5

In the following, a different compound is considered.
Task item: Supply measured inhibition at 1 µM of COc1ccc(CN2C3CC2CN(c2ccc(-c4cc(OCC(C)(C)O)cn5ncc(C#N)c45)cn2)C3)cn1 in your reply.
Reply: 60

----------
target: UniProt:Q06187; experiment: Kinase panel profiling at 1 µmol/L (MSA or IMAP), percentage inhibition; format: biochemical; conditions: BTK kinase assay; 1 µmol/L single concentration; read-out: %-inhibition BTK
Sequence (Q06187 whole entry): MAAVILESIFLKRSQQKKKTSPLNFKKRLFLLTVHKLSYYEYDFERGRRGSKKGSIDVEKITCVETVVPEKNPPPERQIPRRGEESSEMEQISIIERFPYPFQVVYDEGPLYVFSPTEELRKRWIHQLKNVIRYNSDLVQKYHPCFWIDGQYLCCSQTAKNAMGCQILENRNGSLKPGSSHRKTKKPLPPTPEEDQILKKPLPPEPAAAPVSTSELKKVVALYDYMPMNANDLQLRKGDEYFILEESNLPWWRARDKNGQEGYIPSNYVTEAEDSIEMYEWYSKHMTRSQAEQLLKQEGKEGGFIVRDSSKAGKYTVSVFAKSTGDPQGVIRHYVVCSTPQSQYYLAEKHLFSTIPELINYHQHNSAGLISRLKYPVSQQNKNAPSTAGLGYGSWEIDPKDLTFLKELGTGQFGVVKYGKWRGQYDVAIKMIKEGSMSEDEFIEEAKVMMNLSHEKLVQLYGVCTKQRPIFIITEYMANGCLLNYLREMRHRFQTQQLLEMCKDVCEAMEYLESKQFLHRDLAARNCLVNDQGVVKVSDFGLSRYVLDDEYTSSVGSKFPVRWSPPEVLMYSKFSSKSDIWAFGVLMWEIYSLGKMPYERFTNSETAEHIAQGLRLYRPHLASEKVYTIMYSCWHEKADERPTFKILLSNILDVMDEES
Measured inhibition at 1 µM, listed per entry for reference.
Give the value; after it, write the unit.

>>> observed("CCN1C(=O)N(c2c(F)c(OC)cc(OC)c2F)Cc2cnc3[nH]c(CN4CCOCC4)cc3c21")
"-5.29%"
>>> observed("CCn1c(=O)c(-c2cc(NC(=O)Nc3ccccc3)c(F)cc2Br)cc2cnc(NC)cc21")
"4.22%"
>>> observed("C[C@H](Nc1ncnc2nc[nH]c12)c1cc2cccc(Cl)c2c(=O)n1-c1ccccc1")
"1.85%"
>>> observed("Cn1cc(-c2cc3c(N4CCN(c5ncc([C@@](C)(N)c6ccc(F)cc6)cn5)CC4)ncnn3c2)cn1")
"13%"
>>> observed("Cn1cnc2c(F)c(Nc3ccc(Br)cc3F)c(C(=O)NOCCO)cc21")
"-3.75%"

Task item: Read the entry CN1CCN(c2ccc(C(=O)Nc3n[nH]c4ccc(Cc5cc(F)cc(F)c5)cc34)c(NC3CCOCC3)c2)CC1 and write its reported inhibition at 1 µM.
Reply: 97%
